Reference source for all entries: ChEMBL document CHEMBL4257581

Known log(permeability) of a selection of compounds
Procedure summary: Permeability of the compound at 5 uM after 4 hrs by PAMPA
Type: ADME
Observed property: log(permeability)

[[record]]
chemical_string = "CC1(C)CC(Cc2ccc(-c3ccc(-c4cn[nH]c4)cc3O)nn2)CC(C)(C)N1"
result_number = -5.3

[[record]]
chemical_string = "CN(c1ccc(-c2ccc(-c3cn[nH]c3)cc2O)nn1)C1CC(C)(C)NC(C)(C)C1"
result_number = -5.4

[[record]]
chemical_string = "CN(c1ccc(-c2cc3cccnc3cc2O)nn1)C1CC(C)(C)NC(C)(C)C1"
result_number = -4.5

[[record]]
chemical_string = "CN(c1ccc(-c2ccc(-n3ccc(N)n3)cc2O)nn1)C1CC(C)(C)NC(C)(C)C1"
result_number = -5.2


---

Organism: Mus musculus
Procedure summary: Stabilization of SMN2 mRNA in mouse myoblasts assessed as increase in SMN protein level by ELISA relative to DMSO control
Known fold change (FC) of a selection of molecules
Observed property: fold change (FC)

[[record]]
molecule = "CN(c1ccc(-c2ccc(C#N)cc2O)nn1)C1CC(C)(C)NC(C)(C)C1"
result_number = 3.1

[[record]]
molecule = "CN(c1ccc(-c2cc3cnccc3cc2O)nn1)C1CC(C)(C)NC(C)(C)C1"
result_number = 2.6

[[record]]
molecule = "CC1(C)CC(Oc2ccc(-c3ccc(-n4cccn4)cc3O)nn2)CC(C)(C)N1CC(F)(F)F"
result_number = 1.1

[[record]]
molecule = "CC1(C)CC(Nc2ccc(-c3cc4ccccc4s3)nn2)CC(C)(C)N1"
result_number = 2.5

[[record]]
molecule = "CN(c1ccc(-c2ccc(-c3cn[nH]c3)cc2O)nn1)C1CC(C)(C)NC(C)(C)C1"
result_number = 3.1

[[record]]
molecule = "CN(c1ccc(-c2ccc(-n3ccc(N)n3)cc2O)nn1)C1CC(C)(C)NC(C)(C)C1"
result_number = 2.8

[[record]]
molecule = "Oc1cc(-n2cccn2)ccc1-c1ccc(OC2CCNCC2(F)F)nn1 (stereo not drawn)"
result_number = 1.2

